- Test system: SW 1271 complex tumor spheroid viability
- Assay summary: Anticancer human tumor SW 1271 cell line growth inhibition; active = viability on the fitted dose curve at most 10% of control; inactive = the rest;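 also: spheroids exposed to agents for seven days before readout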
- Run conditions: second compound 0.03 µM; first compound 3 µM
Labels: active, inactive

>  <Compound>
Cc1sc2c(c1C)C(c1ccc(Cl)cc1)=NC(CC(=O)Nc1ccc(O)cc1)c1nnc(C)n1-2 (centres undefined) + CC[C@@]1(O)C(=O)OCc2c1cc1n(c2=O)Cc2cc3c(CN(C)C)c(O)ccc3nc2-1

>  <Group>
active

$$$$
>  <Compound>
O=C(c1cc(Cc2n[nH]c(=O)c3ccccc23)ccc1F)N1CCN(C(=O)C2CC2)CC1 + CC[C@@]1(O)C(=O)OCc2c1cc1n(c2=O)Cc2cc3c(CN(C)C)c(O)ccc3nc2-1

>  <Group>
inactive

$$$$
>  <Compound>
CNCc1ccc(-c2cc(-c3nc(-c4ccc(S(=O)(=O)C(C)C)cc4)cnc3N)on2)cc1 + CC[C@@]1(O)C(=O)OCc2c1cc1n(c2=O)Cc2cc3c(CN(C)C)c(O)ccc3nc2-1

>  <Group>
active

$$$$
>  <Compound>
Cn1ncnc1[C@H]1c2n[nH]c(=O)c3cc(F)cc(c23)N[C@@H]1c1ccc(F)cc1 + CC[C@@]1(O)C(=O)OCc2c1cc1n(c2=O)Cc2cc3c(CN(C)C)c(O)ccc3nc2-1

>  <Group>
inactive

$$$$
